We begin with a simple list: items and their reported pIC50.
target: human type 1 glycine transporter (GlyT1) (Homo sapiens); construct: T98G cells (glioma cells) expressing human type 1 glycine transporter (GlyT1) were used; endogenous in cells; host or cells: T98G cells (human glioma cells); assay: Glycine uptake inhibition experiment ([3H] glycine uptake in T98G cells expressing GlyT1); format: cell-based
Sequence (P48067 whole entry): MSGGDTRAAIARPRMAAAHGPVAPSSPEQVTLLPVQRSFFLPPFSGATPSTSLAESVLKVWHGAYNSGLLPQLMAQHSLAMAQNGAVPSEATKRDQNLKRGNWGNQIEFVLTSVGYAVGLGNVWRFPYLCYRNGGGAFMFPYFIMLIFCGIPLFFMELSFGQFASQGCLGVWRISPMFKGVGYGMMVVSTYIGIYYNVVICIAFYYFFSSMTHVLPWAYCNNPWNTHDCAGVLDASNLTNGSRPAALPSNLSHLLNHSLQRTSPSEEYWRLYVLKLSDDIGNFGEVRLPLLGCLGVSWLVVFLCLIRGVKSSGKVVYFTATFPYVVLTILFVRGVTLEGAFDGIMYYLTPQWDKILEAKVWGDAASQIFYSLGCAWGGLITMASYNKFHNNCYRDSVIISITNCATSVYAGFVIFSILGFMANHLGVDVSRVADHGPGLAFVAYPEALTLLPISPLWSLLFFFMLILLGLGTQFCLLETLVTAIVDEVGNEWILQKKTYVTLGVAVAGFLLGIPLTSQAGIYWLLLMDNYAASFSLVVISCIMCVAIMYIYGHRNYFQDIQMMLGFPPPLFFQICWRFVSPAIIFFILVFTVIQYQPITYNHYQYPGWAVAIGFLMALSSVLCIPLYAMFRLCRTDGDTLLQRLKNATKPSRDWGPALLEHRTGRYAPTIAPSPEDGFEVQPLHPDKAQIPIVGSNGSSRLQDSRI
pIC50: −log10 of the molar value.
observed-property: pIC50

compound="N#Cc1cncc(CN2C(=O)C(F)(F)c3c(C(O)C(F)F)cccc32)c1 (single isomer, unassigned) [Compound 164]" observed_property=pIC50 reading=6.34
compound="C[C@H](O)c1cccc2c1C(F)(F)C(=O)N2Cc1ncccc1C#N [Compound 213]" observed_property=pIC50 reading=7.40
compound="C[C@H](O)c1cccc2c1C(F)(F)C(=O)N2Cc1ccncc1Cl [Compound 185]" observed_property=pIC50 reading=6.55
compound="C[C@H](O)c1cccc2c1C(F)(F)C(=O)N2Cc1cnc(Cl)c(C#N)c1 [Compound 251]" observed_property=pIC50 reading=7.70
compound="C[C@H](O)c1cccc2c1C(F)(F)C(=O)N2Cc1ccnc(C#N)c1Cl [Compound 192]" observed_property=pIC50 reading=7.17
compound="O=C1N(Cc2cncc(Cl)c2)c2c(F)ccc(C(O)C(F)F)c2C1(F)F (stereo not shown) [Compound 252]" observed_property=pIC50 reading=7.34
compound="C[C@H](O)c1cccc2c1C(F)(F)C(=O)N2Cc1ccc(-n2ccnn2)nc1 [Compound 197]" observed_property=pIC50 reading=5.17
compound="C[C@H](O)c1cccc2c1C(F)(F)C(=O)N2Cc1cc(Cl)nc(C#N)c1 [Compound 187]" observed_property=pIC50 reading=7.47
compound="C[C@H](O)c1cccc2c1C(F)(F)C(=O)N2Cc1cnc(Cl)c(Cl)c1 [Compound 200]" observed_property=pIC50 reading=8.07
compound="O=C1N(Cc2cncc(Cl)c2)c2cc(F)cc(C(O)C(F)F)c2C1(F)F (stereo not shown) [Compound 234]" observed_property=pIC50 reading=6.21

---

molecular target: human type 1 glycine transporter (GlyT1) (Homo sapiens); construct: T98G cells (glioma cells) expressing human type 1 glycine transporter (GlyT1) were used; endogenous in cells; host or cells: T98G cells (human glioma cells); test: Glycine uptake inhibition experiment ([3H] glycine uptake in T98G cells expressing GlyT1); assay type: cell-based; details: table section whose head prints (μm)
observed-property: IC50 (nM)

molecule="O=C1N(Cc2cnccc2Cl)c2cccc(C(O)C(F)F)c2C1(F)F (single isomer, unassigned) [Compound 260]" target_under_test="human type 1 glycine transporter (GlyT1) (Homo sapiens)" observed_property=IC50 reading=1500
molecule="N#Cc1cccnc1CN1C(=O)C(F)(F)c2c(C(O)C(F)F)cccc21 (single isomer, unassigned) [Compound 259]" target_under_test="human type 1 glycine transporter (GlyT1) (Homo sapiens)" observed_property=IC50 reading=1900
molecule="O=C1N(Cc2cc(Cl)c(F)cn2)c2cccc(C(O)C(F)F)c2C1(F)F (single isomer, unassigned) [Compound 266]" target_under_test="human type 1 glycine transporter (GlyT1) (Homo sapiens)" observed_property=IC50 reading=21
molecule="N#Cc1nccc(CN2C(=O)C(F)(F)c3c(C(O)C(F)F)cccc32)c1Cl (single isomer, unassigned) [Compound 267]" target_under_test="human type 1 glycine transporter (GlyT1) (Homo sapiens)" observed_property=IC50 reading=260
